Some molecules, each annotated with its measured inhibition at 0.01 µM.
- TARGET_SYSTEM: human Kv1.3 (hKv1.3) channels (Homo sapiens (Human), UniProt P22001)
- Sequence (P22001 whole entry): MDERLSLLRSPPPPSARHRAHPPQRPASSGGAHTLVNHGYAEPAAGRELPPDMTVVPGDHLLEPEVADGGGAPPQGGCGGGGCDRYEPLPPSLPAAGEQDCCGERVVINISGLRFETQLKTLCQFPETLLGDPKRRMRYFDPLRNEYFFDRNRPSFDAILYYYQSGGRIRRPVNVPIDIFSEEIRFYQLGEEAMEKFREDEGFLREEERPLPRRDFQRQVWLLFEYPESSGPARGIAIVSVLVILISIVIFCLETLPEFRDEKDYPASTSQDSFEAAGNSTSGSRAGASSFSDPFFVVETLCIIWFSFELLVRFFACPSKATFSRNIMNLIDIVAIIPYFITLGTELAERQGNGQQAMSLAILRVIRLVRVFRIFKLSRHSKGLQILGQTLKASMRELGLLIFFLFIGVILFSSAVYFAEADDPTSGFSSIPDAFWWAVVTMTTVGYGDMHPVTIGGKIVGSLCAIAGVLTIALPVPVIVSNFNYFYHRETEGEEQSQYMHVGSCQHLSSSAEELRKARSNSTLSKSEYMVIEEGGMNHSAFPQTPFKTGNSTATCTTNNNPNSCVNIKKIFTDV
- ASSAY_PROTOCOL: Electrophysiological (whole-cell patch clamp) determination of inhibitory activity on Kv1.3 channels
- Format: cell-based
- CONDITION_PARAMETERS: HEK-293T; compound concentration 10 nM; HEK293T cells expressing hKv1.3; peak current inhibition; read-out: 10 nM inhibition rate (Kv1.3)

Solved entries (count: 5):
| MOLECULE | inhibition at 0.01 µM |
| --- | --- |
| CN(O)C(=O)CCN1CC(c2c(O)ccc(Cl)c2Cl)CC1=O (stereo not drawn) | < 0% |
| OC[C@H]1C[C@H](N2CC(c3c(O)ccc(Cl)c3Cl)CC2=S)C1 (mixture of isomers) | 0 to 5% |
| CON(C)CCCN1CC(c2c(O)ccc(Cl)c2Cl)CC1=O (stereo not drawn) | < 0% |
| OCCCCN1CC(c2c(O)ccc(Cl)c2Cl)CC1=S (racemic) | 25 to 50% |
| Cc1ncc(N2CC(c3c(O)ccc(Cl)c3Cl)CC2=S)s1 (stereo not drawn) | 0 to 5% |

Form: molecule = COc1ccc(N2CC(c3c(O)ccc(Cl)c3Cl)CC2=S)cn1 (racemic) ; inhibition at 0.01 µM = 0 to 5%

# inhibition at 0.01 µM of NCCCN1CC(c2c(O)ccc(Cl)c2Cl)CC1=S (racemic) = 50 to 75%

Record summary for OC[C@@H](O)CN1CC(c2c(O)ccc(Cl)c2Cl)CC1=S (mixture of isomers) : reported inhibition at 0.01 µM = 50 to 75%

For reference, reported inhibition at 0.01 µM for Cc1cc(N2CC(c3c(O)ccc(Cl)c3Cl)CC2=S)ccn1 (racemic) stands at 0 to 5%

Cn1cc(N2CC(c3c(O)ccc(Cl)c3Cl)CC2=S)cn1 (racemic) yielded inhibition at 0.01 µM of 50 to 75%

Sample C=Cn1cc(N2CC(c3c(O)ccc(Cl)c3Cl)CC2=O)cn1 (stereo not drawn) ; inhibition at 0.01 µM observed: 50 to 75%

The molecule listed as CONC(=O)CCN1CC(c2c(O)ccc(Cl)c2Cl)CC1=O (stereo not drawn) shows inhibition at 0.01 µM equal to 0 to 5%

inhibition at 0.01 µM reading for Oc1ccc(Cl)c(Cl)c1C1CC(=S)N(CCn2cccn2)C1 (racemic) : < 0%

So, O=C1N(CCCO)CC(c2c(O)ccc(Cl)c2Cl)C1(F)F (racemic) ? Its inhibition at 0.01 µM was < 0%

// inhibition at 0.01 µM lookup, molecule = OCCCN1CC(c2c(O)ccc(F)c2Cl)CC1=S (racemic) , result: 0 to 5%

Given item C=Cn1cc(N2CC(c3c(O)ccc(Cl)c3Cl)CC2=S)cn1 (racemic) , the value recorded as its inhibition at 0.01 µM is 25 to 50%

The molecule NC(=S)CCN1CC(c2c(O)ccc(Cl)c2Cl)CC1=O (stereo not drawn) showed inhibition at 0.01 µM equal to < 0%

Sample O=C1CC(c2c(O)ccc(Cl)c2Cl)CN1C1CC2(CNC2)C1 (stereo not drawn) ; inhibition at 0.01 µM observed: ≥ 75%

Cited source: patent US20260042734A1
